Experiment: chemical genetic growth profiling, strain panel (AID 1159580);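 note: tested at 20 µM; growth read once vehicle control cultures reached saturation at 30 °C; 1 = growth at the plate median or of vehicle wells; lower values mean less growth of the strain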
Details: S. cerevisiae deletion strains, growth OD, locus YNL175C, strain NOP13, hits give low values
Out of some 5,500 compounds screened, about 2,000 (36%) were called active. Inconclusive results (about 18%) are left out. Some of the results follow.
Catalogue of normalized growth readings, one per entry.
readoutName: normalized growth

INSERT INTO measurements (compound, readoutname, readoutnumber) VALUES
  ('NC(=O)c1cc[n+](CC2=C(C(=O)O)N3C(=O)[C@@H](NC(=O)[C@@H](c4ccccc4)S(=O)(=O)[O-])[C@H]3SC2)cc1', 'normalized growth', 1),
  ('NC(N)=NN=Cc1c(Cl)cccc1Cl', 'normalized growth', 1.02),
  ('Cc1cc(C)c(NC(=O)C[C@H](CC(=O)O)c2cccc3ccccc23)c(C(=O)N2CCC3(CCCC3)CC2)c1', 'normalized growth', 0.976),
  ('Nc1ncnc2c1nc(Sc1ccc(Cl)cc1)n2C1OC2COP(=O)(O)O[C@@H]2[C@@H]1O (stereo partly specified)', 'normalized growth', 1.01),
  ('CC1C(=O)N(C)C(=O)c2nc[nH]c21 (stereo unspecified)', 'normalized growth', 1),
  ('C=CCn1c(=O)c2c(nc(-c3ccc(S(=O)(=O)O)cc3)n2C)n(C)c1=O', 'normalized growth', 1),
  ('N=S(=O)(O)Cc1noc2ccccc12', 'normalized growth', 0.996),
  ('O=C(O)CCCCCC[C@H]1C(=O)NC(=O)N1CC[C@@H](O)C1CCCCC1', 'normalized growth', 0.987),
  ('O=C(O)C1CCCN(CCC=C(c2ccccc2)c2ccccc2)C1 (stereo unspecified)', 'normalized growth', 0.999),
  ('Nc1ccc(S(=O)(=O)Nc2ccnn2-c2ccccc2)cc1', 'normalized growth', 1.01),
  ('N=C(N)c1ccc(N)cc1', 'normalized growth', 1.01);

----------
Experiment: chemical genetic growth profiling, strain panel (AID 1159580);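 note: tested at 20 µM; growth read once vehicle control cultures reached saturation at 30 °C; 1 = growth at the plate median or of vehicle wells; lower values mean less growth of the strain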
Conditions: S. cerevisiae deletion strains, growth OD, locus YKR091W, strain srl3, hits give low values
In all, about 5,500 compounds went through this assay and about 2,000 (36%) were called active. Roughly 18% stayed inconclusive and do not appear here. This is one part of the list.
readoutName: normalized growth

INSERT INTO results (compound, readoutname, readoutnumber) VALUES
  ('Nc1c2ccccc2nc2ccccc12', 'normalized growth', 0.925),
  ('COC(=O)C[C@H]1C(C)(C)C2(O)OC34CC2C(=O)[C@]1(C)C3CC[C@]1(C)C4=CC(=O)O[C@H]1c1ccoc1 (some centres undefined)', 'normalized growth', 0.985),
  ('COc1ccc2[nH]cc(CCN)c2c1', 'normalized growth', 0.996),
  ('COc1cc(C(=O)O[C@H]2CC[C@@]3(C)[C@@H]4CC[C@H]5[C@]6(O)C[C@H](O)[C@@]7(O)[C@@H](CN8C[C@@H](C)CC[C@H]8[C@@]7(C)O)[C@]6(O)C[C@@]53O[C@]24O)cc(OC)c1OC', 'normalized growth', 1);

----------
Each entry below carries its recorded normalized growth.
Assay: chemical genetic growth profiling, strain panel (AID 1159580);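 note: tested at 20 µM; growth read once vehicle control cultures reached saturation at 30 °C; 1 = growth at the plate median or of vehicle wells; lower values mean less growth of the strain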
Conditions: S. cerevisiae deletion strains, growth OD, locus YNL224C, strain SQS1, hits give low values
About 2,000 (36%) of roughly 5,500 compounds were called active. Inconclusive results (about 18%) are left out. Some of the results follow.
readoutName: normalized growth

INSERT INTO assay_data (compound, readoutnumber) VALUES
  ('O=C1Cc2c([nH]c3ccc(Br)cc23)-c2ccccc2N1', 0.998),
  ('Cn1cnc2c(NCc3ccccc3)nc(NCCO)nc21', 1),
  ('O=C(O)CCCCCC[C@H]1C(=O)NC(=O)N1CC[C@@H](O)C1CCCCC1', 0.982),
  ('COc1ccc2[nH]c3c(c2c1)CCNC3', 1.01),
  ('N=C(N)SCCN', 1.01),
  ('COc1cccc(OC)c1OCCNCC1COc2ccccc2O1 (stereo unspecified)', 0.999),
  ('C[N+](C)(C)CCO', 1.01),
  ('CCN1CCC[C@H]1CNC(=O)c1cc(S(N)(=O)=O)ccc1OC', 1.01),
  ('Cn1ccnc1', 1.01),
  ('CC(=O)[C@]1(O)Cc2c(O)c3c(c(O)c2[C@@H](O[C@H]2C[C@H](N)[C@H](O)[C@H](C)O2)C1)C(=O)c1ccccc1C3=O', 0.165),
  ('COc1ccc2c(c1)c(CC(=O)O)c(C)n2C(=O)c1ccc(Cl)cc1', 0.994),
  ('COc1ccc(C(=O)NCc2cccnc2)cc1C(=O)NCc1cccnc1', 1),
  ('Clc1ccccc1C(c1ccccc1)(c1ccccc1)n1ccnc1', 0.109),
  ('CN1C2CCC1CC(NC(=O)c1nn(C)c3ccccc13)C2 (stereo unspecified)', 1),
  ('Nc1c2c(nc3ccccc13)CCCC2', 0.995),
  ('CC1=C[C@@H]2c3cccc4[nH]cc(c34)C[C@H]2N(C)C1', 0.987),
  ('CCCOc1ccccc1-c1nc2n[nH]nc2c(=O)[nH]1', 1),
  ('C/C(O)=C(\C#N)C(=O)Nc1cc(Br)ccc1Br', 0.967),
  ('NC(N)=[N+]1CCc2ccccc2C1', 1.01),
  ('CC(C)(C)c1o[nH]c(=O)c1CC(N)C(=O)O (stereo unspecified)', 0.992),
  ('Nc1c2c(nc3ccccc13)CCCC2O (stereo unspecified)', 1),
  ('Nc1ccc(S(=O)(=O)Nc2ccnn2-c2ccccc2)cc1', 1),
  ('N=C(N)c1ccc(N)cc1', 0.968),
  ('N=C(N)SCCc1ccc(CCSC(=N)N)cc1', 1.02),
  ('COc1ccc2c(c1)c(CC(=O)O)c(C)n2C(=O)c1ccccc1', 1.02),
  ('Clc1cc(I)cc(Cl)c1NC1=NCCN1', 1.01);

----------
Here, each record is paired with measured normalized growth data.
Experiment: chemical genetic growth profiling, strain panel (AID 1159580);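 note: tested at 20 µM; growth read once vehicle control cultures reached saturation at 30 °C; 1 = growth at the plate median or of vehicle wells; lower values mean less growth of the strain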
Settings: S. cerevisiae deletion strains, growth OD, locus YDR195W, strain ref2
Hit rate of the full screen: of about 5,500 compounds, about 2,000 (36%) were called active. Not shown: some 18% with an inconclusive outcome. This is one part of the list.
readoutName: normalized growth

INSERT INTO assay_data (compound, readoutname, result) VALUES
  ('C/C=C(/C)C(=O)OC1CCC2(C)C3CCC4C5(O)CC(O)C6(O)C(CN7CC(C)CCC7C6(C)O)C5(O)CC42OC13O (configuration not stated)', 'normalized growth', '1.04 (inactive)'),
  ('COc1cc(C(=O)O[C@H]2CC[C@@]3(C)[C@@H]4CC[C@H]5[C@]6(O)C[C@H](O)[C@@]7(O)[C@@H](CN8C[C@@H](C)CC[C@H]8[C@@]7(C)O)[C@]6(O)C[C@@]53O[C@]24O)cc(OC)c1OC', 'normalized growth', '0.967 (inactive)'),
  ('COc1cccc2c1C(=O)c1c(O)c3c(c(O)c1C2=O)C[C@@](O)(C(=O)CO)C[C@@H]3OC1C[C@H](N)[C@H](O)[C@H](C)O1 (some centres not stated)', 'normalized growth', '1.23 [resistant] (active)'),
  ('C[C@@H]1CC[C@H]2[C@@H](C)C(=O)O[C@@H]3O[C@@]4(C)CC[C@@H]1[C@]32OO4', 'normalized growth', '0.956 (inactive)'),
  ('O=C1c2c(O)cccc2Cc2cccc(O)c21', 'normalized growth', '1.11 (inactive)'),
  ('Nc1ccc(S(=O)(=O)Nc2ccnn2-c2ccccc2)cc1', 'normalized growth', '0.961 (inactive)'),
  ('CCCCCCCCCCCCCCC(C(=O)O)C(O)(CC(=O)OC)C(=O)O (configuration not stated)', 'normalized growth', '1.03 (inactive)'),
  ('N=C(N)c1ccc(OCCCCCOc2ccc(C(=N)N)cc2)cc1', 'normalized growth', '0.968 (inactive)'),
  ('Cc1cc(C(C)(C)C)c(O)c(C(C)(C)C)c1', 'normalized growth', '0.845 (active)'),
  ('CC1=NS(=O)(=O)c2cc(Cl)ccc2N1', 'normalized growth', '0.899 (inactive)'),
  ('COc1cccc2c1C(=O)c1c(O)c3c(c(O)c1C2=O)C[C@@](O)(C(C)=O)C[C@@H]3O[C@H]1C[C@H](N)[C@H](O)[C@H](C)O1', 'normalized growth', '0.983 (inactive)'),
  ('COc1ccc2c(c1)c(CC(=O)O)c(C)n2C(=O)c1ccc(Cl)cc1', 'normalized growth', '1.02 (inactive)'),
  ('COC(=O)C[C@H]1C(C)(C)C(=O)[C@@H]2CC3C4=CC(=O)O[C@@H](c5ccoc5)[C@]4(C)CCC3[C@@]1(C)C2=O (some centres not stated)', 'normalized growth', '0.972 (inactive)'),
  ('N#CC(O[C@@H]1O[C@H](CO[C@@H]2O[C@H](CO)[C@@H](O)[C@H](O)[C@H]2O)[C@@H](O)[C@H](O)[C@H]1O)c1ccccc1 (some centres not stated)', 'normalized growth', '0.945 (inactive)'),
  ('COc1c(-c2coc3cc4c(cc3c2=O)CC(OC(C)=O)C(C)(C)O4)ccc2c1C=CC(C)(C)O2 (configuration not stated)', 'normalized growth', '1.05 (inactive)'),
  ('Cc1ccnc(NS(=O)(=O)c2ccc(N)cc2)n1', 'normalized growth', '1 (inactive)'),
  ('C[C@@H]1C(=O)O[C@H]2[C@H]1CC[C@@]1(C)C=CC(=O)[C@@]3(C)O[C@@]213', 'normalized growth', '1.01 (inactive)');
